Let's go through some recorded IC50 values for Bifunctional epoxide hydrolase 2 (Homo sapiens, UniProt P34913) together.
Metric Name: IC50 (nM)

[
  {
    "Structure Smiles": "CCC(=O)N1CCC(NC(=O)Nc2ccc3c(c2)OCO3)CC1",
    "IC50 / nM": 61
  }
]

P: O=C(Nc1ccc(OC(F)(F)F)cc1)NC1CCN(C(=O)CN2CCN(Cc3ccccc3)CC2)CC1
Q: CCC(=O)N1CCC(NC(=O)Nc2ccc(C(=O)OC)cc2)CC1
Which value of IC50 is numerically greater: that of P or that of Q ? Please respond with the label that marks your chosen entry.
Q
